# key: entry, value: log10 TGI
system: M14 melanoma; assay: NCI tumour cell line growth inhibition, 48 h
Measurement Kind: log10 TGI (log10 of the value in µM)

>>> readout_number("CN1CN(c2ccccc2)C2(CCN(C3Nc4ccccc4O3)CC2)C1=O (centres undefined)")
1.66
>>> readout_number("CON=C1C[C@]2(C[C@@H]3C[C@@H](C/C=C(\\C)C[C@@H](C)/C=C/C=C4\\CO[C@@H]5[C@H](O)C(C)=C[C@@H](C(=O)O3)[C@]45O)O2)O[C@H](/C(C)=C/C(C)C)[C@H]1C")
1.52
>>> readout_number("O=C1C(Cl)=C(N2CCN(CCOCCO)CC2)C(=O)c2ccccc21")
1.35
>>> readout_number("O=C(c1cc(Cl)cc(Cl)c1)N(Cc1cccnc1)C(=S)N(Cc1cccnc1)C(=O)c1cc(Cl)cc(Cl)c1")
1.86
>>> readout_number("CC(=O)OC1CC2C(C)(C)CCC[C@]2(C)C2=C1C(O)=C(C(C)C)C(=O)C2=O (some centres undefined)")
0.26
>>> readout_number("CCC1(OC(=O)CNC)C(=O)OCc2c1cc1n(c2=O)Cc2cc3ccccc3nc2-1 (centres undefined)")
0.10
>>> readout_number("NC(=O)c1cc(I)ccc1NC(=O)/C=C/c1ccccc1Cl")
1.39
>>> readout_number("CC(C)C1CC(CO)(CNc2nc(N)nc(Cl)c2/C=N\\O)C1 (centres undefined)")
1.42
>>> readout_number("O=C(NC1CCN(Cc2ccccc2)CC1)c1cccc(I)c1")
1.49
>>> readout_number("Cc1cc2c(C(=O)NCC#N)cccc2n1-c1nc2c(c(NCc3ccccc3)n1)CCCC2")
-0.27
